Molecular target: human glucocorticoid receptor-α [GRX] isoform (Homo sapiens, UniProt P04150)
Construct: purchased Ligand Pharmaceuticals (San Diego, CA); host or cells: insect SF21 cells (baculovirus)
Sequence (P04150 whole entry, canonical isoform): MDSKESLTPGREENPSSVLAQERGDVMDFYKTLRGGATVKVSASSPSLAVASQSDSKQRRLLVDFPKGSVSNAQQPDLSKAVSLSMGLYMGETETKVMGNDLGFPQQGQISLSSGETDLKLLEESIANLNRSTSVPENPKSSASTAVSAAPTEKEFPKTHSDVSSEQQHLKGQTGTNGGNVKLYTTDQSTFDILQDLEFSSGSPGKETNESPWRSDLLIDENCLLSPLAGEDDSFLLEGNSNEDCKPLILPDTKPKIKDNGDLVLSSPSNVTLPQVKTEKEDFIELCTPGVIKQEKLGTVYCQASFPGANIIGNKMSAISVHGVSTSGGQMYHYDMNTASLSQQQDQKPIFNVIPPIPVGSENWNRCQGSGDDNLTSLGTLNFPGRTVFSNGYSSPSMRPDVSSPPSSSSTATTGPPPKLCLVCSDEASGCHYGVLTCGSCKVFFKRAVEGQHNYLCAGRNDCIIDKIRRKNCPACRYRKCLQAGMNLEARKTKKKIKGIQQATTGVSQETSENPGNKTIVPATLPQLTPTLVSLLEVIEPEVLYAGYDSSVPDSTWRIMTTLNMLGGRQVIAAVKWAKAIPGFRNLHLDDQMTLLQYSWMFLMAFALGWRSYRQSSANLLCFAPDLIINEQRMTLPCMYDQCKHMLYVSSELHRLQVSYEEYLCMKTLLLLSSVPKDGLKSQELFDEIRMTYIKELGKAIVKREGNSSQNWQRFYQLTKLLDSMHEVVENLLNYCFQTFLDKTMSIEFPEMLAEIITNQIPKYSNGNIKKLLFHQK
Assay: glucocorticoid receptor (GR) cytosol binding assay, [3H]-dexamethasone competition
Conditions: [3H]-Dex ~0.9 nM, GRX cytosol, 4 °C overnight; Cheng-Prusoff; read-out: Ki (nM) GR
parameter: Ki (nM)
State the answer as a number, implicitly in nM.

Consider the molecule Clc1ccc(Cl)c(C(c2ccc(NCc3ccccc3)cc2)c2ccc(NCc3ccccc3)cc2)c1 [Example 37] and give its measured Ki. 421

Can you look up the measured Ki of CN(C)c1ccc(C(c2ccc(N(C)C)cc2)c2cccc([N+](=O)[O-])c2)cc1 [Example 9] for me? 1380

Entry CN(C)c1ccc(C(Oc2ccc(Cl)cc2)c2cc([N+](=O)[O-])ccc2Cl)cc1 (centres unmarked) [Example 53] has what Ki? 788

Dear colleague, I am looking for the recorded Ki of the following molecule: COc1ccccc1C(c1ccc(N(C)C)cc1)c1ccc(N(C)C)cc1 [Example 8] 4290

Look up Ki for this molecule: CN(C)c1ccc(C(Oc2ccccc2)c2cc([N+](=O)[O-])ccc2Cl)cc1 (centres unmarked) [Example 52] 733

Tell me the measured Ki of CNc1ccc(C(c2ccc(NC)cc2)c2cc(Cl)ccc2Cl)cc1 [Example 27] , please. 71

Please report the recorded Ki for CN(C)c1ccc(C(c2ccc(N(C)C)cc2)c2ccc([N+](=O)[O-])cc2)cc1 [Example 4] . 4650

Looking for the measured Ki of CC(=O)Nc1ccc(Cl)c(C(c2ccc(N(C)C)cc2)c2ccc(N(C)C)cc2)c1 [Example 3] , can you help? 5150

Item CN(C)c1ccc(C(c2ccc(N(C)C)cc2)c2ccc(Cl)c([N+](=O)[O-])c2)cc1 [Example 2] has what recorded Ki? 4200

// query Ki value for entry CN(C)c1ccc(C(c2ccc(Cl)cc2)c2ccc(N(C)C)cc2)cc1 [Example 5] 4650

---

Below, each of the molecules is paired with its reported Ki value.
Target: human glucocorticoid receptor-α [GRX] isoform (Homo sapiens, UniProt P04150)
Construct: purchased Ligand Pharmaceuticals (San Diego, CA); host or cells: insect SF21 cells (baculovirus)
Assay: glucocorticoid receptor (GR) cytosol binding assay, [3H]-dexamethasone competition
Provide the reading as a plain figure in µM.

# query: Ki | item "CN(C)c1ccc(C(c2ccc(N(C)C)cc2)c2cc(NC(=O)c3ccc([N+](=O)[O-])cc3)ccc2Cl)cc1" | system: human glucocorticoid receptor-α [GRX] isoform (Homo sapiens, UniProt P04150) 4.65

Please state recorded Ki (tested on human glucocorticoid receptor-α [GRX] isoform (Homo sapiens, UniProt P04150)) of CN(C)c1ccc(C(c2ccc(N(C)CCO)cc2)c2cc([N+](=O)[O-])ccc2Cl)cc1 (stereo not shown) 0.109

For human glucocorticoid receptor-α [GRX] isoform (Homo sapiens, UniProt P04150), provide Ki of "CN(C)c1ccc(C(c2ccc(N(C)C)cc2)c2ccccc2I)cc1" please. 0.734

Consider now this further molecule.
Fill in the recorded Ki for this molecule, with human glucocorticoid receptor-α [GRX] isoform (Homo sapiens, UniProt P04150) as test system: "CN(C)c1ccc(C(c2ccc(N(C)C)cc2)c2cccc(Cl)c2Cl)cc1" 1.89

---

Molecular target: human glucocorticoid receptor-α [GRX] isoform (Homo sapiens)
Construct: purchased Ligand Pharmaceuticals (San Diego, CA); host or cells: insect SF21 cells (baculovirus)
Experiment: glucocorticoid receptor (GR) cytosol binding assay, [3H]-dexamethasone competition
Conditions: [3H]-Dex ~0.9 nM, GRX cytosol, 4 °C overnight; Cheng-Prusoff; read-out: Ki (nM) GR
Entries annotated with measured log10(Ki)
Transform log10 | Measure Ki | Unit nM

Below, each entry is followed by its recorded log10(Ki) result.
So what does the record say about log10(Ki) for CN(C)c1ccc(C(c2ccc(N(C)C)cc2)c2cc(Br)ccc2Cl)cc1 [Example 34] ? 2.86

Reported log10(Ki), molecule CN(C)c1ccc(C(Nc2ccccc2)c2cc([N+](=O)[O-])ccc2Cl)cc1 (centres unmarked) [Example 55] : ____ 3.23

For the molecule O=[N+]([O-])c1ccc(Cl)c(C(c2ccc(NCc3ccccc3)cc2)c2ccc(NCc3ccccc3)cc2)c1 [Example 36] , what log10(Ki) is on record? 1.58

Others:
Record request: log10(Ki) value, item CN(C)c1ccc(C(c2ccc(N(C)C)cc2)c2c(Cl)cccc2[N+](=O)[O-])cc1 [Example 12] 3.59

// log10(Ki) lookup, key: CNc1ccc(C(c2ccc(N(C)CCOC(C)=O)cc2)c2cc([N+](=O)[O-])ccc2Cl)cc1 (centres unmarked) [Example 49] 2.13

Fill blank: measured log10(Ki) of the molecule O=[N+]([O-])c1ccc(Cl)c(C(c2ccc(N3CCCC3)cc2)c2ccc(N3CCCC3)cc2)c1 [Example 29] is ____. 3.66

Return reported log10(Ki); argument: O=[N+]([O-])c1ccc(Cl)c(C(c2ccc(N3CCOCC3)cc2)c2ccc(N3CCOCC3)cc2)c1 [Example 22] 2.59

Endpoint output: log10(Ki) of Clc1cc(Cl)c(Cl)c(C(c2ccc(N3CCOCC3)cc2)c2ccc(N3CCOCC3)cc2)c1 [Example 28] . Value? 3.72

If you can, please state the reported log10(Ki) value of O=[N+]([O-])c1ccc(Cl)c(C(c2ccc(N3CCCCC3)cc2)c2ccc(N3CCCCC3)cc2)c1 [Example 13] . 3.70

Would you mind telling me what log10(Ki) value was observed for CN(C)c1ccc(C(Sc2ccccc2)c2cc([N+](=O)[O-])ccc2Cl)cc1 (centres unmarked) [Example 54] ? 2.36

Could you tell me which log10(Ki) is on file for CN(C)c1ccc(C(c2ccc(N(C)C)cc2)c2cc([N+](=O)[O-])ccc2Cl)cc1 [Example 1] ? 2.43

Provenance of the data: patent EP1100483B1
